molecular target: human Nav1.8 (hNav1.8) ion channel (Homo sapiens); test: Nav1.8 channel inhibition, estimated IC50 (one or more of: fluorescence inhibition assay, PatchXpress, IonFlux HT automated patch clamp); settings: HEK293 cells stably expressing hNav1.8; method used per compound not stated; read-out: Activity range (estimated IC50)
Sequence (Q9Y5Y9 whole entry): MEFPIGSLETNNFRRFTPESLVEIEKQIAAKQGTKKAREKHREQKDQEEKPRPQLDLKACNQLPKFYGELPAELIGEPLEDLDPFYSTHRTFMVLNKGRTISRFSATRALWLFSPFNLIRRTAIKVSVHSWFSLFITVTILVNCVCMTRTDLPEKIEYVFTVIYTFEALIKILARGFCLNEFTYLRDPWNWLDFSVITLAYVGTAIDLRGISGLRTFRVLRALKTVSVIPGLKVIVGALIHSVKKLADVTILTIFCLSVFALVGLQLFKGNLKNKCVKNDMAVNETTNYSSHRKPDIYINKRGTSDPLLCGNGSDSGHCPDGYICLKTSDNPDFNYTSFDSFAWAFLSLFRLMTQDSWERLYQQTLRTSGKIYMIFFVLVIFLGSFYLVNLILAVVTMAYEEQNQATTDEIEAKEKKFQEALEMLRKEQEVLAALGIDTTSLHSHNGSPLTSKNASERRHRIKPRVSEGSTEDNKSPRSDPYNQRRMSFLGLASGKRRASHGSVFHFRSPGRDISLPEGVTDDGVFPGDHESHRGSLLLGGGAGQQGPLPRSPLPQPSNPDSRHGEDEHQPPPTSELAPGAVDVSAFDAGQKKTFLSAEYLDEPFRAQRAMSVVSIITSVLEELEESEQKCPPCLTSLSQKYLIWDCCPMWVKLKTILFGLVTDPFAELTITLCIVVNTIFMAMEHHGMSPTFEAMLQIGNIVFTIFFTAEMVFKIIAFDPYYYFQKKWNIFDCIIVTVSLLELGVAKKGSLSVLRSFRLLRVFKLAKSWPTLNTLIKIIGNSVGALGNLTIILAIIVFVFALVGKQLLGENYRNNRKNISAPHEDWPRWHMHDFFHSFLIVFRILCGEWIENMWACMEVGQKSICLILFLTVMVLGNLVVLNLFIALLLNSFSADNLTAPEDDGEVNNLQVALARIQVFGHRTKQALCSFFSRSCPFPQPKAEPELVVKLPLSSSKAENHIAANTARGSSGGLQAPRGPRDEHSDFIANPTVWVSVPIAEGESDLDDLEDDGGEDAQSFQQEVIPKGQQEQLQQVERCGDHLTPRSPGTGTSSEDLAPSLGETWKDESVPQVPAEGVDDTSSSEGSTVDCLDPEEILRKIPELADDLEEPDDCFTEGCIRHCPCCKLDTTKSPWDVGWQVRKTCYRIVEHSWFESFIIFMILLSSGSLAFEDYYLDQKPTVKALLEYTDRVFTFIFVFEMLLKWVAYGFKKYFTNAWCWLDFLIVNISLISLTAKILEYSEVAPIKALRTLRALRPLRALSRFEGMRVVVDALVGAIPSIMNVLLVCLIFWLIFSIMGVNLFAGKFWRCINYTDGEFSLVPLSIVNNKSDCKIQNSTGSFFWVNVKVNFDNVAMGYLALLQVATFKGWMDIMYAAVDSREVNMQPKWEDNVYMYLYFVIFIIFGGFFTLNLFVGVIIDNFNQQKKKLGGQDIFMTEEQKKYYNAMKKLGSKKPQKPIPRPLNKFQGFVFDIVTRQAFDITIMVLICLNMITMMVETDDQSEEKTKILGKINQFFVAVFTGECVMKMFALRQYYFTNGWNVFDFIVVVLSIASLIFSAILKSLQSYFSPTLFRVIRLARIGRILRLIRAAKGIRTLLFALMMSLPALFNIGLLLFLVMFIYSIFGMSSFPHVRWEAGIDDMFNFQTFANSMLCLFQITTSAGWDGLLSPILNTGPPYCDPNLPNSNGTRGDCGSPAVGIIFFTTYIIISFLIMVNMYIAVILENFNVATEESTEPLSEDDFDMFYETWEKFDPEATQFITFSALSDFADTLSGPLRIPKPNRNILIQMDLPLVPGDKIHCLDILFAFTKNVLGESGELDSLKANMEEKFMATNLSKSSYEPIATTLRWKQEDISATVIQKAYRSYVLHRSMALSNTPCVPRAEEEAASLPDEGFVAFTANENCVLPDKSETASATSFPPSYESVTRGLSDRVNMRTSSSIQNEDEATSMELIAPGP
pIC50: −log10 of the molar value.

| Molecule | Target Under Test | pIC50 |
| --- | --- | --- |
| COc1cc(F)ccc1Oc1ncc(Br)cc1C(=O)Nc1cccc(S(C)(=O)=O)c1 | human Nav1.8 (hNav1.8) ion channel (Homo sapiens) | < 6.00 |
| COc1cc(F)ccc1Oc1ncc(C(F)(F)F)cc1C(=O)Nc1ccncn1 | human Nav1.8 (hNav1.8) ion channel (Homo sapiens) | > 6.30 |
| COc1ccc(Oc2ncc(C(F)(F)F)cc2C(=O)Nc2ccnnc2)c(Cl)c1 | human Nav1.8 (hNav1.8) ion channel (Homo sapiens) | < 6.00 |
| NS(=O)(=O)c1cccc(NC(=O)c2cc(C(F)(F)F)cnc2Oc2ccc(OC(F)(F)F)cc2)c1 | human Nav1.8 (hNav1.8) ion channel (Homo sapiens) | > 6.30 |
| CS(=N)(=O)c1cccc(NC(=O)c2cc(C(F)(F)F)cnc2Oc2ccc(OC(F)(F)F)cc2)c1 (single isomer, unassigned) [Example 130] | human Nav1.8 (hNav1.8) ion channel (Homo sapiens) | > 6.30 |
| CN(C)S(=O)(=O)c1cccc(NC(=O)c2cc(C(F)(F)F)cnc2Oc2ccc(OC(F)(F)F)cc2Cl)c1 | human Nav1.8 (hNav1.8) ion channel (Homo sapiens) | < 6.00 |
| COc1cc(F)ccc1Oc1nc(C)c(C#N)cc1C(=O)Nc1cccc(S(C)(=O)=O)c1 | human Nav1.8 (hNav1.8) ion channel (Homo sapiens) | 6.00 to 6.30 |
| COc1ccc(Oc2ncc(C(F)(F)F)cc2C(=O)Nc2ccc[n+]([O-])c2)c(OC)c1 | human Nav1.8 (hNav1.8) ion channel (Homo sapiens) | > 6.30 |
| CCS(=O)(=O)c1cccc(NC(=O)c2cc(C(F)(F)F)cnc2Oc2ccc(OC(F)(F)F)cc2)c1 | human Nav1.8 (hNav1.8) ion channel (Homo sapiens) | > 6.30 |
| O=C(Nc1ccnnc1)c1cnc(C(F)(F)F)cc1Oc1ccc(OC(F)(F)F)cc1 | human Nav1.8 (hNav1.8) ion channel (Homo sapiens) | 6.00 to 6.30 |
| Cn1cc(NC(=O)c2cc(C(F)(F)F)cnc2Oc2ccc(OC(F)(F)F)cc2Cl)cn1 | human Nav1.8 (hNav1.8) ion channel (Homo sapiens) | > 6.30 |
| COc1cc(F)ccc1Oc1ncc(C(F)(F)F)cc1C(=O)Nc1cccnc1 | human Nav1.8 (hNav1.8) ion channel (Homo sapiens) | < 6.00 |
| CS(=O)(=O)c1cccc(NC(=O)c2cc(C(F)(F)F)cnc2Oc2cccc(F)c2)c1 | human Nav1.8 (hNav1.8) ion channel (Homo sapiens) | 6.00 to 6.30 |
| COc1ccc(Oc2ncc(C(F)(F)F)cc2C(=O)Nc2cccc(S(C)(=N)=O)c2)c(OC)c1 (stereo not shown) | human Nav1.8 (hNav1.8) ion channel (Homo sapiens) | > 6.30 |
| COc1ccc(Oc2cc(C(F)(F)F)ncc2C(=O)Nc2ccnnc2)c(OC)c1 | human Nav1.8 (hNav1.8) ion channel (Homo sapiens) | > 6.30 |
| CS(=O)(=O)c1cccc(NC(=O)c2cc(C(F)(F)F)cnc2Oc2ccc(F)cc2)c1 | human Nav1.8 (hNav1.8) ion channel (Homo sapiens) | < 6.00 |

###

Entries annotated with measured pIC50
target: human Nav1.8 (hNav1.8) ion channel (Homo sapiens); assay: Nav1.8 channel inhibition, estimated IC50 (one or more of: fluorescence inhibition assay, PatchXpress, IonFlux HT automated patch clamp); conditions: HEK293 cells stably expressing hNav1.8; method used per compound not stated; read-out: Activity range (estimated IC50)
pIC50: −log10 of the molar value.

| Molecule | pIC50 |
| --- | --- |
| O=C(Nc1ccnnc1)c1cnc(C(F)(F)F)cc1Oc1ccc(F)cc1F | < 6.00 |
| O=C(Nc1ccnnc1)c1cc(C(F)(F)F)cnc1Oc1ccc(Cl)cc1Cl | 6.00 to 6.30 |
| COc1cc(F)ccc1Oc1cc(C(F)(F)F)ncc1C(=O)Nc1ccnnc1 | > 6.30 |
| Cc1ccc(Oc2ncc(C(F)(F)F)cc2C(=O)Nc2cccc(S(C)(=O)=O)c2)cc1 | < 6.00 |
| O=C(Nc1ccnnc1)c1cc(C(F)(F)F)cnc1Oc1ccc(OC(F)(F)F)cc1 | > 6.30 |
| O=C(Nc1ccnnc1)c1cnc(C(F)(F)F)cc1Oc1ccc(OC(F)(F)F)cc1Cl | > 6.30 |
| O=C(Nc1ccnnc1)c1cc(C(F)(F)F)cnc1Oc1ccc(F)cc1F | < 6.00 |
| CS(=O)(=O)c1cccc(NC(=O)c2cc(C(F)(F)F)cnc2Oc2ccc(OC(F)(F)F)c(F)c2)c1 | > 6.30 |
| CS(=O)(=O)c1cccc(NC(=O)c2cc(C(F)(F)F)cnc2Oc2cc(F)cc(F)c2)c1 | < 6.00 |
| COc1cc(F)ccc1Oc1ncc(Cl)cc1C(=O)Nc1cccc(S(C)(=O)=O)c1 | 6.00 to 6.30 |
| Cn1ccc(NC(=O)c2cc(C(F)(F)F)cnc2Oc2ccc(OC(F)(F)F)cc2Cl)cc1=O | > 6.30 |
| O=C(Nc1ccc[n+]([O-])c1)c1cnc(C(F)(F)F)cc1Oc1ccc(OC(F)(F)F)cc1 | > 6.30 |
| Cc1cc(F)ccc1Oc1ncc(C(F)(F)F)cc1C(=O)Nc1ccc[n+]([O-])c1 | < 6.00 |
| COc1ccc(NC(=O)c2cc(C(F)(F)F)cnc2Oc2ccc(OC(F)(F)F)cc2Cl)cn1 | 6.00 to 6.30 |
| CN(C)c1ccccc1Oc1ncc(C(F)(F)F)cc1C(=O)Nc1cccc(S(C)(=O)=O)c1 | 6.00 to 6.30 |
| NC(=O)c1cccc(NC(=O)c2cnc(C(F)(F)F)cc2Oc2ccc(OC(F)(F)F)cc2Cl)c1 | > 6.30 |
| O=C(Nc1cc[n+]([O-])cc1)c1cc(C(F)(F)F)cnc1Oc1ccc(OC(F)(F)F)cc1 | > 6.30 |
| CN=S(C)(=O)c1cccc(NC(=O)c2cc(C(F)(F)F)cnc2Oc2ccc(F)cc2OC)c1 (centres unmarked) | > 6.30 |
| COc1cc(F)ccc1Oc1nc(OC)c(F)cc1C(=O)Nc1cccc(S(C)(=O)=O)c1 | > 6.30 |
| C[S+]([O-])c1cccc(NC(=O)c2cc(C(F)(F)F)cnc2Oc2ccc(OC(F)(F)F)cc2)c1 (centres unmarked) | > 6.30 |
| O=C(Nc1ccc(F)c(F)c1)c1cc(C(F)(F)F)cnc1Oc1ccc(OC(F)(F)F)cc1Cl | > 6.30 |
| CC(C)Oc1ccccc1Oc1ncc(C(F)(F)F)cc1C(=O)Nc1cccc(S(C)(=O)=O)c1 | < 6.00 |
| CS(=O)(=O)c1cccc(NC(=O)c2cc(C(F)(F)F)cnc2Oc2ccc(Cl)cc2Cl)c1 | > 6.30 |
| O=C(Nc1ccnnc1)c1cnc(C(F)(F)F)cc1Oc1ccc(OC(F)F)cc1 | < 6.00 |
| COc1cc(F)ccc1Oc1cc(C(F)(F)F)ncc1C(=O)Nc1ccncc1 | > 6.30 |
| COc1cc(F)ccc1Oc1ncc(C(F)(F)F)cc1C(=O)Nc1ccnnc1 | 6.00 to 6.30 |
| CS(=O)(=O)c1ccc(NC(=O)c2cc(C(F)(F)F)cnc2Oc2ccc(OC(F)(F)F)cc2Cl)cc1 | > 6.30 |
| CS(=O)(=O)c1ccc(F)c(NC(=O)c2cnc(C(F)(F)F)cc2Oc2ccc(OC(F)(F)F)cc2Cl)c1 | > 6.30 |
| CS(=O)(=O)c1cccc(NC(=O)c2cc(C(F)(F)F)cnc2Oc2ccccc2C(F)(F)F)c1 | > 6.30 |
| CC(=O)c1cccc(NC(=O)c2cc(C(F)(F)F)cnc2Oc2ccc(OC(F)(F)F)cc2Cl)c1 | < 6.00 |
| COc1cc(F)ccc1Oc1ncc(C(F)(F)F)cc1C(=O)Nc1ccc[n+]([O-])c1 | < 6.00 |
| CS(=O)(=O)c1cccc(NC(=O)c2cc(C(F)(F)F)cnc2Oc2cc(Cl)cc(Cl)c2)c1 | < 6.00 |

###

biological target: human Nav1.8 (hNav1.8) ion channel (Homo sapiens); assay: Nav1.8 channel inhibition, estimated IC50 (one or more of: fluorescence inhibition assay, PatchXpress, IonFlux HT automated patch clamp); settings: HEK293 cells stably expressing hNav1.8; method used per compound not stated; read-out: Activity range (estimated IC50)

| Compound | IC50 |
| --- | --- |
| COc1cc(F)ccc1Oc1ncc(C(F)(F)F)cc1C(=O)Nc1cccc(S(=O)(=O)C(F)(F)F)c1 | > 1000 nM |
| O=C(Nc1ccncc1)c1cnc(C(F)(F)F)cc1Oc1ccc(OC(F)(F)F)cc1Cl | < 500 nM |
| Cc1cc(F)ccc1Oc1cc(C(F)(F)F)ncc1C(=O)Nc1ccc[n+]([O-])c1 | 500 to 1000 nM |
| COc1cc(F)ccc1Oc1ncc(C(F)(F)F)cc1C(=O)Nc1cccc(S(C)(=N)=O)c1 (stereo not shown) | < 500 nM |
| CS(=O)(=O)c1cccc(NC(=O)c2cc(C(F)(F)F)cnc2Oc2cc(F)c(F)c(F)c2)c1 | 500 to 1000 nM |
| CS(=N)(=O)c1cccc(NC(=O)c2cc(C(F)(F)F)cnc2Oc2ccc(OC(F)(F)F)cc2)c1 (stereo not shown) [Example 123] | < 500 nM |
| Cc1cc(F)ccc1Oc1ncc(C(F)(F)F)cc1C(=O)Nc1ccnnc1 | > 1000 nM |
| COc1cc(F)ccc1Oc1ncc(C(F)(F)F)cc1C(=O)Nc1ccc(C#N)nc1 | > 1000 nM |
| O=C(Nc1ccc[n+]([O-])c1)c1cnc(C(F)(F)F)cc1Oc1ccc(OC(F)(F)F)cc1Cl | < 500 nM |
| CS(=N)(=O)c1cccc(NC(=O)c2cc(C(F)(F)F)cnc2Oc2ccc(F)cc2F)c1 (stereo not shown) | < 500 nM |
| CS(=O)(=O)c1cccc(NC(=O)c2cc(Cl)cnc2Oc2ccc(OC(F)(F)F)cc2)c1 | < 500 nM |
| COc1cc(F)ccc1Oc1nc(C(F)(F)F)ccc1C(=O)Nc1cccc(S(C)(=O)=O)c1 | < 500 nM |
| COc1cc(F)ccc1Oc1ncc(C(F)(F)F)cc1C(=O)Nc1cccc(N2CCOCC2)c1 | > 1000 nM |
| CN=S(C)(=O)c1cccc(NC(=O)c2cnc(C(F)(F)F)cc2Oc2ccc(OC(F)(F)F)cc2Cl)c1 (stereo not shown) | < 500 nM |
| CCCc1ccccc1Oc1ncc(C(F)(F)F)cc1C(=O)Nc1cccc(S(C)(=O)=O)c1 | > 1000 nM |
| CS(=O)(=O)c1cccc(NC(=O)c2cc(C(F)(F)F)cnc2Oc2ccc(OC(F)F)cc2)c1 | < 500 nM |
